tgt: full-length beta-Catenin (Uniprot ID P35222) (Homo sapiens (Human)) (UniProt P35222)
Sequence (P35222 whole entry): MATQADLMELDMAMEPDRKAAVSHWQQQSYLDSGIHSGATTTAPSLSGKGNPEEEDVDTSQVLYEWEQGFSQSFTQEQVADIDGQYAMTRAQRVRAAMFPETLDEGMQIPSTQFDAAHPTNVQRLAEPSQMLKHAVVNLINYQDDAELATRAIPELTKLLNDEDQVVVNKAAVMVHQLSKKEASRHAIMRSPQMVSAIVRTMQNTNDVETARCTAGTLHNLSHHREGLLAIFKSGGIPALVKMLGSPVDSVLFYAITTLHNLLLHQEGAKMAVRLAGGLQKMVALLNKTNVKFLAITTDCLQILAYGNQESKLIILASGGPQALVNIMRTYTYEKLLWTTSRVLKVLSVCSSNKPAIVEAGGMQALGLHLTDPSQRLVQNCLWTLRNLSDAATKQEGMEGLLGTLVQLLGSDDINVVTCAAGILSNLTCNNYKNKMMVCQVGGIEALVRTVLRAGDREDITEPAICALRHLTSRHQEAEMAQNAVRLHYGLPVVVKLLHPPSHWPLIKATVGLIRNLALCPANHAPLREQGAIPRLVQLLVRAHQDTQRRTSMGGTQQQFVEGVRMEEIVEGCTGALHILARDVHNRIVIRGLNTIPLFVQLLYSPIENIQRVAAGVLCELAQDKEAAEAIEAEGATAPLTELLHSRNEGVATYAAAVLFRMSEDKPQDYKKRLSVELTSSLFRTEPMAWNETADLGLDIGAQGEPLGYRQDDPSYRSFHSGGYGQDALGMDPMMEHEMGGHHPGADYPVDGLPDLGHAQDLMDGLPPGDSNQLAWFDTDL
assayProtocol: fluorescence polarization competition; full-length beta-catenin + 5FAM-TCF4(10-53) probe
pEC50: −log10 of the molar value. Starred links: 1 amine or outer side, 2 acyl side, 3 side chain; linkers in the order of their positions; H or OH if unused. Positions of bridges follow the written chain, without caps; N, C: chain ends. Non-standard residues stand in square brackets, D forms with d. Primed or numbered codes have the meaning given here. PyrS2″ = (S)-3-amino-1-((pent-4-en-1-yloxy)carbonyl)pyrrolidine-3-carboxylic acid (stapling residue), C=CCCCOC(=O)N1CC[C@@](N[*:1])(C(=O)[*:2])C1; B5(33) = 2-amino-2-(pent-4-en-1-yl)hept-6-enoic acid (bis-pentenylglycine, two olefin side chains), C=CCCCC(CCCC=C)(N[*:1])C(=O)[*:2]; PyrS2 = (S)-3-amino-1-((pent-4-en-1-yloxy)carbonyl)pyrrolidine-3-carboxylic acid, C=CCCCOC(=O)N1CC[C@@](N[*:1])(C(=O)[*:2])C1; B5(3) = 2,2-bis(4-pentenyl)glycine (stitching residue), C=CCCCC(CCCC=C)(N[*:1])C(=O)[*:2]; 2Nal = N[C@@H](Cc1ccc2ccccc2c1)C(=O)O; Bta = N[C@@H](Cc1csc2ccccc12)C(=O)O; αAllylPro = C=CC[C@@]1(C(=O)O)CCCN1; tBuAla = CC(C)(C)C[C@H](N)C(=O)O
measuredEndpoint: pEC50

binder	val
Ac-[αAllylPro]D[tBuAla][B5(3)]DTAAFT[PyrS2″][2Nal][Bta]S-NH2 (staple 1-4; staple 4-11 (inferred); not fully specified; printed as Ac-PL3-Asp-Npg-B5-Asp-Thr-Ala-Ala-Phe-Thr-PyrS2-2NapA-BztA-Ser-NH2) [I-1270]	5.43

1 = XDXXDDAAFTXFXQ (not fully specified; as printed: MeSO2-PL3-Asp-Npg-B5-Asp-Asp-Ala-Ala-Phe-Thr-S8-2C1F-BztA-Gln-NH2; stapled) [I-1260]
2 = Ac-[αAllylPro]D[tBuAla][B5(33)]DTAAFT[PyrS2]F[Bta]S-NH2 (staple 1-4, 4-11 (inferred); not fully specified; printed as Ac-PL3-Asp-Npg-B5-Asp-Thr-Ala-Ala-Phe-Thr-PyrS2-Phe-BztA-Ser-NH2) [I-1263]
Which entry shows the lesser value of pEC50 here, 1 or 2 ? // caller expects the label of the chosen entry 2
(2: 7.37, 1: 7.64)
